All figures here come from ChEMBL document CHEMBL1127264.

assayed target: UniProtKB P34976
Sequence (P34976 whole entry): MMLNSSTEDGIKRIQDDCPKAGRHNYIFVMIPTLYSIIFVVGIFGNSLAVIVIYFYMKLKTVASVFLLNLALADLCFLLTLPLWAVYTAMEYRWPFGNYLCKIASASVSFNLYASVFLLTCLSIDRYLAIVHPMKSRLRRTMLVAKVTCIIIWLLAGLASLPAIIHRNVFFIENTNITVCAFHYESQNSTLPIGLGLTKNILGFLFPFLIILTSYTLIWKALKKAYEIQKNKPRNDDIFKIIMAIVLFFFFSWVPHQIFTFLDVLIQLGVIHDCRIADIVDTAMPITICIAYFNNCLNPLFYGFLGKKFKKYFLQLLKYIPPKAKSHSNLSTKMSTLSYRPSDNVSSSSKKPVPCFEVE
recorded endpoint: IC50 (µM)

CCCc1nc2c(C)ccnc2n1Cc1ccc2c(c1)SC(C(=O)O)(c1ccccc1)S2 (configuration not stated)
0.034
CCCc1nc2c(C)ccnc2n1Cc1ccc2c(c1)OC(C(=O)O)(c1ccccc1)O2 (configuration not stated)
0.056
